- experimental.target: T1, VEGF (human, UniProt P15692-4 27-191, limits assumed)
- T1 construct: Biotinylated in the KDR-IgG ELISA, amine-coupled to the chip in BIAcore; also called biotinylated VEGF; vascular endothelial growth factor
- T1 sequence (P15692 other isoform, or with tags, fused parts or gaps limits assumed): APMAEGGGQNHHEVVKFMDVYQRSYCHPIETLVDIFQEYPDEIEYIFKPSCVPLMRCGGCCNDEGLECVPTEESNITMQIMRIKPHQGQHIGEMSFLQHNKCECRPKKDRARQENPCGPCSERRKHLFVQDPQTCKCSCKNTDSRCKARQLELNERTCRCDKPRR
- measurement.description: BIAcore-2000 SPR, Fab over immobilized VEGF, 25 C
- Protocol: BIAcore Analysis: The VEGF-binding affinities of Fab fragments were calculated from association and dissociation rate constants measured using a BIAcore-2000™ surface plasmon resonance system (BIAcore, Inc., Piscataway, N.J.). A biosensor chip was activated for covalent coupling of VEGF using N-ethyl-N′-(3-dimethylaminopropyl)-carbodiimide hydrochloride (EDC) and N-hydroxysuccinimide (NHS) according to the supplier's (BIAcore, Inc., Piscataway, N.J.) instructions. […]
Kd less than 0.7 nM is Yes; Kd greater than or equal to 0.7 nM is No.

INSERT INTO assay_data (binder, answer_label) VALUES
  ('Y0238-7 (Fab, V domains shown, From library YC-81 on the pY0192 template; Soluble Fab) VH: EVQLVESGGGLVQPGGSLRLSCAASGYTFTNYGINWVRQAPGKGLEWVGWINTYTGEPTYAADFKRRFTFSLDTSKSTAYLQMNSLRAEDTAVYYCAKYPYYWGTSHWYFDVWGQGTL VL: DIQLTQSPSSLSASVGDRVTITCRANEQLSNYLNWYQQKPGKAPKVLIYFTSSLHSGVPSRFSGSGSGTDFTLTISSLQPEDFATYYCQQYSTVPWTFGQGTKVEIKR', 'Yes'),
  ('Y0244-4 (Fab, V domains shown, Soluble Fab) VH: EVQLVESGGGLVQPGGSLRLSCAASGYTFTNYGINWVRQAPGKGLEWVGWINTYTGEPTYAADFKRRFTFSIDKSKSTAYLQMNSLRAEDTAVYYCAKYPHYYGSSHWYFDVWGQGTL VL: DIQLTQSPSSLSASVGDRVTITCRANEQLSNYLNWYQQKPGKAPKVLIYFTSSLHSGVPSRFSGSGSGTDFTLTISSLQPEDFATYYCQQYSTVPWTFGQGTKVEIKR', 'No'),
  ('Y0238-3 (Fab, V domains shown, Soluble Fab) VH: EVQLVESGGGLVQPGGSLRLSCAASGYTFTNYGINWVRQAPGKGLEWVGWINTYTGEPTYAADFKRRFTFSLDTSKSTAYLQMNSLRAEDTAVYYCAKYPYYYGTSHWYFDVWGQGTL VL: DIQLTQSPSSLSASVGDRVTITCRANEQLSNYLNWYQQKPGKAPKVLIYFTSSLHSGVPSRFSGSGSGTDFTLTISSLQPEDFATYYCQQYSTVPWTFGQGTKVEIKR', 'Yes'),
  ('Y0238-1 (Fab, V domains shown, From library YC-81 on the pY0192 template; Soluble Fab) VH: EVQLVESGGGLVQPGGSLRLSCAASGYTFTNYGINWVRQAPGKGLEWVGWINTYTGEPTYAADFKRRFTFSLDTSKSTAYLQMNSLRAEDTAVYYCAKYPYYRGTSHWYFDVWGQGTL VL: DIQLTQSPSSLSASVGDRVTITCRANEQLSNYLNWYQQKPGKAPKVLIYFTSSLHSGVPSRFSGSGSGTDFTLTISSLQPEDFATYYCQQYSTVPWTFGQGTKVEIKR', 'Yes'),
  ('Y0313-3 (Fab, V domains shown, Soluble Fab) VH: EVQLVESGGGLVQPGGSLRLSCAASGYTFTNYGINWVRQAPGKGLEWVGWINTYTGEPTYAADFKRRFTFSLDTSKSTAYLQMNSLRAEDTAVYYCAKYPYYYGSSHWYFDVWGQGTL VL: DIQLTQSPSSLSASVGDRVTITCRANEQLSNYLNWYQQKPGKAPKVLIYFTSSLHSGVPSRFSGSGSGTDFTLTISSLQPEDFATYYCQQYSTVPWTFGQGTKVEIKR', 'Yes'),
  ('Y0238-5 (Fab, V domains shown, From library YC-81 on the pY0192 template; Soluble Fab) VH: EVQLVESGGGLVQPGGSLRLSCAASGYTFTNYGINWVRQAPGKGLEWVGWINTYTGEPTYAADFKRRFTFSLDTSKSTAYLQMNSLRAEDTAVYYCAKYPYYIAKSHWYFDVWGQGTL VL: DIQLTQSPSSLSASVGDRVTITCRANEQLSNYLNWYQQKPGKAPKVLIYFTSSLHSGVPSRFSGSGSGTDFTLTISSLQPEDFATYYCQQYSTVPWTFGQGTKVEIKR', 'No'),
  ('Y0244-1 (Fab, V domains shown, Soluble Fab) VH: EVQLVESGGGLVQPGGSLRLSCAASGYTFTNYGINWVRQAPGKGLEWVGWINTYTGEPTYAADFKRRFTFSVDVSKSTAYLQMNSLRAEDTAVYYCAKYPHYYGSSHWYFDVWGQGTL VL: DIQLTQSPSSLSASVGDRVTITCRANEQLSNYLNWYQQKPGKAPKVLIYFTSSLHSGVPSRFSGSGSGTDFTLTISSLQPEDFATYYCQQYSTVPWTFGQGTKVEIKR', 'No'),
  ('Y0238-10 (Fab, V domains shown, From library YC-81 on the pY0192 template; Soluble Fab) VH: EVQLVESGGGLVQPGGSLRLSCAASGYTFTNYGINWVRQAPGKGLEWVGWINTYTGEPTYAADFKRRFTFSLDTSKSTAYLQMNSLRAEDTAVYYCAKYPYYRNTSHWYFDVWGQGTL VL: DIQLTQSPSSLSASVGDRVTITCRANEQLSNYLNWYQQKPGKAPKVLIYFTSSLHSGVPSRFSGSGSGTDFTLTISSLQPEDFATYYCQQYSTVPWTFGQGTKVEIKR', 'Yes'),
  ('Y0313-1 (Fab, V domains shown, Soluble Fab; Y0243-1 with VH3 H101Y and S105T) VH: EVQLVESGGGLVQPGGSLRLSCAASGYDFTHYGMNWVRQAPGKGLEWVGWINTYTGEPTYAADFKRRFTFSLDTSKSTAYLQMNSLRAEDTAVYYCAKYPYYYGTSHWYFDVWGQGTL VL: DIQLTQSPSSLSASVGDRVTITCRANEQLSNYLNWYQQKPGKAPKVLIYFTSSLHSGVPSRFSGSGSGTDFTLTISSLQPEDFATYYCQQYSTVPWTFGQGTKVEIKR', 'Yes');
